molecular target: Finger-2 Subsite GAG; experiment: Finger 2 variant affinity (Table 5); format: binding
VALUE_KIND: Kd (µM)

In [3]: df
Out[3]:
                                  substance  value_kind  reported_value
0  pmGTG: finger 2 variant refined by mutagenesis, helix SRSDELVR          Kd            0.03

###

molecular target: Finger-2 Subsite GTT; assay: Finger 2 variant affinity (Table 5); format: binding
pKd: −log10 of the molar value.
VALUE_KIND: pKd

                                  substance  value_kind  reported_value
0  pmGTT: finger 2 variant refined by mutagenesis, helix STSGSLVR         pKd            8.30
